# assay_info: Pharmacokinetic study, intraperitoneal injection
# Assay type: in vivo, male Swiss–Webster mice
# protocol_conditions: male, Swiss-Webster, mouse, whole blood, ip, 1.25 mg/kg, mean of 4 mice; i.p.; read-out: Tmax
reported_metric: Tmax

structure_string	reported_metric	data_value
O=C(NCCCCCCNC(=O)NCC12CC3CC(CC(C3)C1)C2)NCC12CC3CC(CC(C3)C1)C2	Tmax	1 h

* * *

# assay_info: Pharmacokinetic study, intraperitoneal injection
# Format: in vivo, male Swiss–Webster mice
# protocol_conditions: male, Swiss-Webster, mouse, whole blood, ip, 1.25 mg/kg, m ± SE of 4 mice; i.p.; read-out: MRT

structure_string	MRT
O=C(NCCCCCCNC(=O)NCC12CC3CC(CC(C3)C1)C2)NCC12CC3CC(CC(C3)C1)C2	~1 h

Where these numbers come from: paper PMC11354909
